Each item that follows carries a reported Change.
Test system: Canis familiaris
Assay: Percentage change in renal resistance in anesthetized dogs
Assay type: functional, Canis lupus familiaris

{"compound": "CCCCCC(O)CCCC(CCCc1ccc(C(=O)O)cc1)C(C)O (configuration not stated)", "Change": "-19%"}
{"compound": "CCCCCC(O)CCCC(CCCCc1ccccc1C(=O)O)C(C)=O (configuration not stated)", "Change": "19%"}
{"compound": "CCCOCC(O)CCCC(CCCc1ccc(C(=O)O)cc1)C(C)=O (configuration not stated)", "Change": "-43%"}
{"compound": "CS(=O)(=O)N(CC#CC1(O)CCCCC1)CCCc1ccc(C(=O)O)cc1", "Change": "-10%"}
{"compound": "CCCCCC(O)CCCN(CCCc1ccc(C(=O)O)cc1)S(C)(=O)=O (configuration not stated)", "Change": "5%"}
{"compound": "CCCCCC(O)CCCC(Cc1ccc(CCC(=O)O)cc1)C(C)=O (configuration not stated)", "Change": "13%"}
{"compound": "CCCCCC(O)CCCC(CCCc1cccc(C(=O)O)c1)C(C)=O (configuration not stated)", "Change": "-20%"}
